Biological target: T1, CaBdf1 BD2 (GST-tagged, wild-type) (Candida albicans (strain SC5314 / ATCC …, UniProt Q5A4W8))
T1 chain: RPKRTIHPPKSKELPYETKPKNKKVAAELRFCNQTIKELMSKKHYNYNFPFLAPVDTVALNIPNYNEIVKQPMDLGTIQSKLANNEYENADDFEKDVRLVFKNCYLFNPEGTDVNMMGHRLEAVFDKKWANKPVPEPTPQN
Experiment: histone peptide array (Active Motif MODified), 1 uM GST-tagged bromodomain, anti-GST detection, normalized mean intensity
Numbered stars: 1 amine (or outer) side, 2 acyl side, 3 side chain; on linkers, the order of the positions; unused ones are H or OH. Square brackets hold non-standard residues; d marks the D form. Ends that are not written are not given here. Arg(Me2a) = CN(C)C(=N)NCCC[C@H](N)C(=O)O; Kac = CC(=O)NCCCC[C@H](N[*:1])C(=O)[*:2]; Arg(Me2s) = CN=C(NC)NCCC[C@H](N)C(=O)O; Lys(Me2) = CN(C)CCCC[C@H](N)C(=O)O; pS = N[C@@H](COP(=O)(O)O)C(=O)O; Me2a = not defined here
Each record gets a class by binding score: lower: < 0.004; middle: ≥ 0.004 and < 0.007; upper: ≥ 0.007

> print(dat)
                                      binder  classification
 1  ARTKQTARKSTGGKAPRKQ (A R T K Q T A R Kac S T G G K A P R K Q)           lower
 2  PRKQLATKAARKSAPATGG (P R K Q L A T K A A Rme2a Kme2 S A P A T G G)          middle
 3  ART[Kac]QTA[Arg(Me2a)][Lys(Me2)]STGGKAPRKQ          middle
 4  ARTKQTARKSTGGKAPRKQ (A Rme2a T Kme2 Q T A Rme2a Kme2 S T G G K A P R K Q)          middle
 5  A[Arg(Me2a)]T[Lys(Me2)]QTAR[Lys(Me2)]STGGKAPRKQ           lower
 6  SGRGKGGKGLGKGGAKRHR (S G Rme2a G Kac G G Kac G L G K G G A K R H R)           upper
 7            [pS]GRGK(Ac)QGGKARAK(Ac)AKSRSS           upper
 8  PRKQLATKAAR(Me2a)K(Ac)SAPATGG (reading uncertain)           upper
 9             A[Arg(Me2s)]TKQTARKSTGGKAPRKQ           lower
10           SGRGK(Ac)QGGK(Ac)ARAK(Ac)AKSRSS           upper
11  ARTKQTARKSTGGKAPRKQ (A Rme2a T Kme1 Q T A Rme2a Kac S T G G K A P R K Q)           lower
12  ARTKQTARKSTGGKAPRKQ (A R T K Q T A R Kme2 S T G G K A P R K Q)           lower
13  SGRGKGGKGLGKGGAKRHR (S G Rme2a G K G G Kac G L G K G G A K R H R)           upper
14                    PRKQLATKAARK[pS]APATGG          middle

Reference for the values: paper PMC5454392
